# assay-details: amyloid nucleation score (Sup35N fusion, yeast selection) (log enrichment); library NNK3; higher = more nucleation; inactive = no reads after selection;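 note: zero at mode of non-aggregating sequences after 7 days selection at 30°C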
measured-parameter: amyloid nucleation score

substance	measured-parameter	result
NKGLNL	amyloid nucleation score	inactive
FNCSARNYGTRFFCLMRAGV	amyloid nucleation score	-0.654
LGYISFGFPVEDNWVHLACD	amyloid nucleation score	inactive
STVKVSLYQNQYPNGFNS	amyloid nucleation score	1.66
RMYRGWLVPDAARSKGCRVM	amyloid nucleation score	inactive
RKAYATYATDRLISSDYG	amyloid nucleation score	inactive
RMHDSCFLYGISEDRDSLGN	amyloid nucleation score	inactive
TGVFDFRRVVLLVSHSEV	amyloid nucleation score	inactive
FELSNVHGSLNRAKV	amyloid nucleation score	-0.526
SSYFYHNVILPTHIYNFSVI	amyloid nucleation score	2.27
CKLYHIIGLYLGVVVL	amyloid nucleation score	inactive
KPRVMFMISARVFVNYRICS	amyloid nucleation score	inactive
MDVKKRQSSGVALRFELLDG	amyloid nucleation score	inactive
CYAGRLSETSNWLLLCVELE	amyloid nucleation score	inactive
NFSCCLSCRQHMLAIFM	amyloid nucleation score	0.988
GTLWNSIFACVFQCSERSIM	amyloid nucleation score	inactive
GLKLCCV	amyloid nucleation score	inactive
SCVAVSI	amyloid nucleation score	inactive
LLDNITLFVWNYMVSSEWKL	amyloid nucleation score	inactive
QLSHKACLWLSCSSGIPLGS	amyloid nucleation score	inactive
ISINLIVRCRRLHTPHLPVK	amyloid nucleation score	inactive
PSKPRTGQVGGVYHLCVVFW	amyloid nucleation score	inactive
RQGGVNRNSVSMHSHGYRDC	amyloid nucleation score	inactive
LYDSSYMVDIDSYTLENCRS	amyloid nucleation score	inactive
VMSSMWLAGQTWLSYNCICD	amyloid nucleation score	2.35
GSYRLLY	amyloid nucleation score	inactive
TQNLNRRGKIRVVRDYIDYW	amyloid nucleation score	0.554
VWLHNFLVMKLSMRNFGWVR	amyloid nucleation score	inactive
QWFHVSLS	amyloid nucleation score	inactive
LSSSGIMFCFFVDGLRSLV	amyloid nucleation score	inactive
ESYTWL	amyloid nucleation score	inactive
FVNCLCKRARYYSSGGLSSP	amyloid nucleation score	-0.512
FGLVRTNRDILH	amyloid nucleation score	inactive
HLNTSLETLKVLMVTQPTGN	amyloid nucleation score	inactive
TRLLAGFSWYVTFPVNVSGS	amyloid nucleation score	inactive
FCCHYSKLFRR	amyloid nucleation score	0.641
VTFMIDFRASWALFHDRWWC	amyloid nucleation score	inactive
SVLSVV	amyloid nucleation score	inactive
YSEYMVTNRKVSAGHTARWD	amyloid nucleation score	inactive
HVPGRIWDVFTRLLNEVLTN	amyloid nucleation score	inactive
YSISKAFPMLSRLDMDMFGA	amyloid nucleation score	inactive
SRNYLVSPIDAPEQQSCVEE	amyloid nucleation score	inactive
SMFNGNLSRSMWFWRVRVTP	amyloid nucleation score	inactive
TLNLVSSTICLFR	amyloid nucleation score	inactive
LLYETLLIIMCGKCLQFYIV	amyloid nucleation score	inactive
YYLVSWYVTTVLKSGLLSVR	amyloid nucleation score	inactive
DRTMLFVTCFNFRRSS	amyloid nucleation score	1.64
HNLNIHYMISRVNAYTCTFI	amyloid nucleation score	2.5
RLMYKMMHVSGDEECLFVMV	amyloid nucleation score	inactive
TSCRLRV	amyloid nucleation score	inactive
IVTHSMSSAHINRMNSRQ	amyloid nucleation score	inactive
PSHPVPLFHE	amyloid nucleation score	inactive
FSLRVGMKVHISKIRLGCCK	amyloid nucleation score	inactive
FGMVFHISIACKWTGFSMR	amyloid nucleation score	inactive
LKVKLANR	amyloid nucleation score	inactive
VQWSVSFLSVVGVPWYRRLV	amyloid nucleation score	inactive
AVLCVCIHRLPFYFPPLLKM	amyloid nucleation score	inactive
IFHFAATHEWYIMYYIDGSP	amyloid nucleation score	inactive
GGSVWWY	amyloid nucleation score	inactive
CYLNQSKYAARWNCGDNKME	amyloid nucleation score	inactive
WTRVFLRTKGRSEFLLRWPL	amyloid nucleation score	inactive
RLILDNHDTSFCLIHGSRMI	amyloid nucleation score	inactive
SEYFWLVWPSA	amyloid nucleation score	inactive
MRICFFDSIQHYQKNQD	amyloid nucleation score	2.1
PEFDLCDINSSLGSMRFWQW	amyloid nucleation score	inactive
FSVMYRWRYFGDSAFWISVF	amyloid nucleation score	inactive
MISNHCYSLTMIAE	amyloid nucleation score	-0.432
IHPPSGYPGSGLSLCCSKNS	amyloid nucleation score	inactive
WRVAYET	amyloid nucleation score	inactive
KLFVVHSREGEFIFSI	amyloid nucleation score	inactive
KYVVQPYGSCRWGLITVRAN	amyloid nucleation score	inactive
LLCGSCWFYTMGHVSPNKRI	amyloid nucleation score	0.862
